From: patent US11045411B2

System: normal human epidermal keratinocytes
RUN DESCRIPTION: Synthesis of total glycosaminoglycans, [3H]-glucosamine incorporation in normal human epidermal keratinocytes
Type: cell-based
CONDITION NOTES: 100 μM, 72 hours
I'd be grateful if you could share measured % relative to control, glucosamine incorporation for these entries.
The reply should consist of the numeric value with the unit placed after it.

Ask | Record lookup: for normal human epidermal keratinocytes, what % relative to control, glucosamine incorporation belongs to CNC(=O)C(O)C1OC[C@@H](O)[C@H](O)[C@H]1O (stereo partly shown) ?
Reply | 119%

Ask | What measured % relative to control, glucosamine incorporation is associated with CNC(=O)C(O)C1O[C@H](CO)[C@@H](O)[C@H](O)[C@H]1O (stereo partly shown) on normal human epidermal keratinocytes?
Reply | 118%

Ask | Param readout = % relative to control, glucosamine incorporation; param system = normal human epidermal keratinocytes; param query = CCCNC(=O)C(O)C1O[C@H](CO)[C@@H](O)[C@H](O)[C@H]1O (stereo partly shown) ; response: value
Reply | 123%

Ask | What is its % relative to control, glucosamine incorporation for normal human epidermal keratinocytes? Entry: CNC(=O)C(O)C1O[C@H](CO)[C@@H](OC2O[C@H](CO)[C@H](O)[C@H](O)[C@H]2O)[C@H](O)[C@H]1O (stereo partly shown)
Reply | 137%

----------
Tested on: normal human epidermal keratinocytes
RUN DESCRIPTION: Synthesis of total glycosaminoglycans, [3H]-glucosamine incorporation in normal human epidermal keratinocytes
Format: cell-based
CONDITION NOTES: 300 μM, 72 hours
Assign yes (1) whenever Mean value, radioactive glucosamine incorporated does not fall below 20000 cpm; assign no (0) whenever it does.

Ask | Could you please find out whether CNC(=O)C(O)C1O[C@H](CO)[C@@H](OC2O[C@H](CO)[C@H](O)[C@H](O)[C@H]2O)[C@H](O)[C@H]1O (some centres unmarked) [Compound 21] has Mean value, radioactive glucosamine incorporated that meets 20000 cpm or exceeds it?
Reply | no (0)

Ask | Please tell me: is the compound CNC(=O)C(O)C1O[C@H](CO)[C@@H](O)[C@H](O)[C@H]1O (some centres unmarked) [Compound 1] at or over 20000 cpm in terms of Mean value, radioactive glucosamine incorporated?
Reply | no (0)

Ask | Identify whether the reported Mean value, radioactive glucosamine incorporated of the following compound is 20000 cpm or greater: CCCNC(=O)C(O)C1O[C@H](CO)[C@@H](O)[C@H](O)[C@H]1O (some centres unmarked) [Compound 2]
Reply | no (0)

Ask | Identify whether the reported Mean value, radioactive glucosamine incorporated of the following compound is 20000 cpm or greater: CNC(=O)C(O)C1O[C@H](CO)[C@H](O)[C@H](O)[C@H]1O (some centres unmarked) [Compound 17]
Reply | no (0)

Ask | Does the reported Mean value, radioactive glucosamine incorporated for CNC(=O)C(O)C1O[C@@H](C)[C@H](O)[C@@H](O)[C@H]1O (some centres unmarked) [Compound 9] fall at or above the 20000 cpm mark?
Reply | yes (1)

Ask | Hi team, for O=[N+]([O-])c1ccc(O[C@@H]2OC[C@@H](O)[C@H](O)[C@H]2O)cc1 [4-nitrophenyl β-D-xylopyranoside, 4-nitrophenyl-B-D-xylopyranoside, reference compound] , is the recorded Mean value, radioactive glucosamine incorporated at or above 20000 cpm?
Reply | yes (1)

Ask | Decide: is the reported value of Mean value, radioactive glucosamine incorporated for CNC(=O)C(O)C1O[C@H](CO)[C@@H](O)[C@H](O)[C@@H]1O (some centres unmarked) [Compound 13] equal to or greater than 20000 cpm?
Reply | no (0)

Ask | Does the compound CNC(=O)C(O)C1OC[C@@H](O)[C@H](O)[C@H]1O (some centres unmarked) [Compound 5] have recorded Mean value, radioactive glucosamine incorporated that is 20000 cpm or more?
Reply | no (0)
